Molecular target: Amine oxidase [flavin-containing] B (Homo sapiens, UniProt P27338)
Sequence (P27338 whole entry): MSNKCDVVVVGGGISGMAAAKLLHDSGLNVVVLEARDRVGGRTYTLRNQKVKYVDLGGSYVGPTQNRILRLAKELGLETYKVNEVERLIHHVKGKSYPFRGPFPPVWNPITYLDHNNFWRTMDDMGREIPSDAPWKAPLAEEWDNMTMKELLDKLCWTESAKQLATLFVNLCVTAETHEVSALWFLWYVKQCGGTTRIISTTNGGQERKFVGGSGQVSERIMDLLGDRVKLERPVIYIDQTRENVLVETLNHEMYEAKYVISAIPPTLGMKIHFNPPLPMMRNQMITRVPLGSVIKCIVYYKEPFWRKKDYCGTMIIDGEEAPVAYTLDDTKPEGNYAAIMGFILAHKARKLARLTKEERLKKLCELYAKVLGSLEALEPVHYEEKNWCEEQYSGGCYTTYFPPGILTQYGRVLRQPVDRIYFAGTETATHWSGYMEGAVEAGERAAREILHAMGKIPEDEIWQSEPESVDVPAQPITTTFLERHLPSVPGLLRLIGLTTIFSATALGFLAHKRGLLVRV
Experiment: Activity of human liver MAOB assessed as specific activity at 1 mM
Settings: 1000 µM
Give Activity for every item shown.

Task item: Param item = "CCN1CC=C(c2ccccc2)CC1" ; retrieve measured Activity.
Reply: 8.82 nmol/min/mg

Task item: Now consider "CN1CC=C(c2ccc(O)cc2)CC1" .
Reply: < 5 nmol/min/mg

Task item: Now consider CC1CN(C)CC=C1c1ccccc1 (centres undefined) .
Reply: 11.4 nmol/min/mg

Task item: Now consider "CN1CCC=C(c2ccccc2)C1" .
Reply: < 5 nmol/min/mg

Task item: Now consider "CCCN1CC=C(c2ccccc2)CC1" .
Reply: < 5 nmol/min/mg

Task item: Now consider "C1=C(c2ccccc2)CCN(Cc2ccccc2)C1" .
Reply: < 5 nmol/min/mg

Task item: Now consider "CN1CC=C(c2ccccc2)CC1" .
Reply: 85.2 nmol/min/mg

Task item: Now consider "CN1CC=C(c2ccc(Cl)cc2)CC1" .
Reply: 5.8 nmol/min/mg

Task item: Now consider "C=CCN1CC=C(c2ccccc2)CC1" .
Reply: < 5 nmol/min/mg

Taken from ChEMBL document CHEMBL1151663.
